# assayed-target: Delta-type opioid receptor (Homo sapiens)
# Sequence (P41143 whole entry): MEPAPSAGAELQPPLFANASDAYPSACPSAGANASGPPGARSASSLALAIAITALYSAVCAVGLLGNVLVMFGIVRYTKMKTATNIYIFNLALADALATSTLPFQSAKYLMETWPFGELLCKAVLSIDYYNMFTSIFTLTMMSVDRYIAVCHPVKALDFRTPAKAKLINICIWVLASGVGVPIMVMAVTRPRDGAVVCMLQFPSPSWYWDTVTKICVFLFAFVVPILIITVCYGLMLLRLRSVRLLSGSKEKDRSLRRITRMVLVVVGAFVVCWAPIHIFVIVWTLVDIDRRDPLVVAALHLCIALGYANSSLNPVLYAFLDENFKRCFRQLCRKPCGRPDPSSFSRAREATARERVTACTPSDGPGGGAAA
# procedure-summary: Displacement of [3H]naltrindole from human delta opioid receptor expressed in CHO cells
# Type: cell-based
measure-name: Ki (nM)
API: value field is a number in nM; no unit string.

Prompt: Which Ki value belongs to C[C@H]1C2Cc3ccc(C(=O)NCCc4ccccc4)cc3[C@@]1(C)CCN2CC1CC1 (mixture of isomers) ?
Response: 59

Prompt: Which Ki value belongs to CC[C@@]12CCN(CC3CC3)C(C(=O)c3ccc(C(N)=O)cc31)[C@@H]2C ?
Response: 23

Prompt: Which Ki value belongs to C[C@H]1C2Cc3ccc(C(=O)NCc4ccccc4)cc3[C@@]1(C)CCN2CC1CC1 (mixture of isomers) ?
Response: 210

Prompt: Which Ki value belongs to C[C@H]1C2Cc3ccc(C(=O)NCCCc4ccccc4)cc3[C@@]1(C)CCN2CC1CC1 (mixture of isomers) ?
Response: 47

Prompt: Which Ki value belongs to CC[C@@]12CCN(CC3CC3)C(C(=O)c3ccc(C(=O)NCCc4ccc(-c5ccccc5)cc4)cc31)[C@@H]2C (mixture of isomers) ?
Response: 3.9

Prompt: Which Ki value belongs to C[C@H]1C2Cc3ccc(C(N)=O)cc3[C@@]1(C)CCN2CC1CC1 ?
Response: 5.2
